All figures here come from ChEMBL document CHEMBL1153429.

Assay: Tmax in Sprague-Dawley rat plasma at 10 mg/kg, iv and po
Format: ADME, organism-based
Set-up: dose 10 mg/kg, route oral
quantity-name: Tmax (h)
Report only the number, with the unit h understood.

Problem: Check the records and state Tmax for COCCOc1cc2ncnc(Nc3c(Cl)ccc4c3OCO4)c2cc1NC(=O)[C@@H]1CCCN1
Solution: 1

###

Test system: Rattus norvegicus
Test: Cmax in Sprague-Dawley rat plasma at 10 mg/kg, iv and po
Format: ADME, organism-based
Parameters: dose 10 mg/kg, route oral
Conditions: in vivo
quantity-name: Cmax (nM)
# unit: nM | format: bare number

Problem: Complete the entry with Cmax for COCCOc1cc2ncnc(Nc3c(Cl)ccc4c3OCO4)c2cc1NC(=O)[C@@H]1CCCN1
Solution: 400
